Cited source: patent US6545131B1

The following molecules are shown together with reported Picomoles of substrate cleaved/minute/200 pmoles of indicated protease: Thromb values.
Target: thrombin (Homo sapiens)
Construct: purchased Sigma Chemical Co
Assay: Peptide-AMC cleavage by purified extracellular protease
Assay type: biochemical
Conditions: 0.2 mM substrate, PSA assay buffer pH 7.8
Starred links: 1 amine or outer side, 2 acyl side, 3 side chain; linkers in the order of their positions; H or OH if unused. Residues, ends and D or L forms follow the SMILES beside them. *: point of attachment. AMC = Cc1cc(=O)oc2cc(N*)ccc12; Morpholide = C1CN(*)CCO1; CO = O=C([*:1])[*:2]

CC[C@H](C)[C@H](NC(=O)[C@H](CCCCN)NC(=O)[C@H](CC(N)=O)NC(=O)[C@H](CCC(=O)O)NC(=O)N1CCOCC1)C(=O)N[C@@H](CO)C(=O)N[C@@H](Cc1ccc(O)cc1)C(=O)N[C@@H](CCC(N)=O)C(=O)Nc1ccc2c(C)cc(=O)oc2c1 [ENKISYQ, Glu-Asn-Lys-Ile-Ser-Tyr-Gln] ({Morpholide-CO}-ENKISYQ-{AMC}); 0.3 picomoles/minute/200 pmoles pr

Then this molecule:
Task item: Let me know recorded Picomoles of substrate cleaved/minute/200 pmoles of indicated protease: Thromb for Cc1cc(=O)oc2cc(NC(=O)[C@H](Cc3c[nH]cn3)NC(=O)[C@H](CCC(N)=O)NC(=O)[C@H](CCCCN)NC(=O)[C@H](CO)NC(=O)[C@H](CCCCN)NC(=O)[C@@H](NC(=O)[C@H](C)NC(=O)N3CCOCC3)[C@@H](C)O)ccc12 [ATKSKQH, Ala-Thr-Lys-Ser-Lys-Gln-His] ({Morpholide-CO}-ATKSKQH-{AMC}) , thanks.
Reply: 0.2 picomoles/minute/200 pmoles pr

###

Test: Stability of PSA substrates in serum (AMC release)
Format: in vitro ADME
Details: 0.2 mM substrate
Starred links: 1 amine or outer side, 2 acyl side, 3 side chain; linkers in the order of their positions; H or OH if unused. Residues, ends and D or L forms follow the SMILES beside them. *: point of attachment. AMC = Cc1cc(=O)oc2cc(N*)ccc12; Morpholide = C1CN(*)CCO1; CO = O=C([*:1])[*:2]
MEASUREMENT_LABEL: picomles AMC released/minute: Mouse
Please append the unit to your numeric answer.

Task item: Let me know recorded picomles AMC released/minute: Mouse for CC[C@H](C)[C@H](NC(=O)[C@H](CCCCN)NC(=O)[C@H](CC(N)=O)NC(=O)[C@H](CCC(=O)O)NC(=O)N1CCOCC1)C(=O)N[C@@H](CO)C(=O)N[C@@H](Cc1ccc(O)cc1)C(=O)N[C@@H](CCC(N)=O)C(=O)Nc1ccc2c(C)cc(=O)oc2c1 [ENKISYQ, Glu-Asn-Lys-Ile-Ser-Tyr-Gln] ({Morpholide-CO}-ENKISYQ-{AMC}) , thanks.
Reply: 3.71 picomoles/minute

###

Biological target: chymotrypsin (Bos taurus)
Construct: purchased Sigma Chemical Co
Assay: Peptide-AMC cleavage by purified extracellular protease
Format: biochemical
Details: 0.2 mM substrate, PSA assay buffer pH 7.8
Protocol: The peptides discussed herein were custom synthesized by Enzyme Systems Products (Dublin, Calif.) and, after HPLC separation and purification to >95%, the molecular weights were confirmed by mass spectroscopy. […] Cleavage was studied by measuring fluorescence change secondary to AMC release. Fluorescence detection was carried out with a Fluoroskan II 96 well fluorometric plate reader (ICN Biomedicals, Costa Mesa, Calif.), with excitation wavelength 355 nm and emission wavelength 460 nm. […]
Starred links: 1 amine or outer side, 2 acyl side, 3 side chain; linkers in the order of their positions; H or OH if unused. Residues, ends and D or L forms follow the SMILES beside them. *: point of attachment. AMC = Cc1cc(=O)oc2cc(N*)ccc12; Morpholide = C1CN(*)CCO1; CO = O=C([*:1])[*:2]
MEASUREMENT_LABEL: Picomoles of substrate cleaved/minute/200 pmoles of indicated protease: Chymo

# count of solved cases: 2
CC[C@H](C)[C@H](NC(=O)[C@H](CCCCN)NC(=O)[C@H](CC(N)=O)NC(=O)[C@H](CCC(N)=O)NC(=O)N1CCOCC1)C(=O)N[C@@H](CO)C(=O)N[C@@H](Cc1ccc(O)cc1)C(=O)N[C@@H](CCC(N)=O)C(=O)Nc1ccc2c(C)cc(=O)oc2c1 [QNKISYQ, Gln-Asn-Lys-Ile-Ser-Tyr-Gln] ({Morpholide-CO}-QNKISYQ-{AMC}); 9.0 picomoles/minute/200 pmoles pr
CC[C@H](C)[C@H](NC(=O)[C@H](CCCCN)NC(=O)[C@H](CC(N)=O)NC(=O)[C@H](CCC(=O)O)NC(=O)N1CCOCC1)C(=O)N[C@@H](CO)C(=O)N[C@@H](Cc1ccc(O)cc1)C(=O)N[C@@H](CCC(N)=O)C(=O)Nc1ccc2c(C)cc(=O)oc2c1 [ENKISYQ, Glu-Asn-Lys-Ile-Ser-Tyr-Gln] ({Morpholide-CO}-ENKISYQ-{AMC}); 3.6 picomoles/minute/200 pmoles pr

Task item: Provide Picomoles of substrate cleaved/minute/200 pmoles of indicated protease: Chymo, system chymotrypsin (Bos taurus), entry Cc1cc(=O)oc2cc(NC(=O)[C@H](Cc3c[nH]cn3)NC(=O)[C@H](CCC(N)=O)NC(=O)[C@H](CCCCN)NC(=O)[C@H](CO)NC(=O)[C@H](CCCCN)NC(=O)[C@@H](NC(=O)[C@H](C)NC(=O)N3CCOCC3)[C@@H](C)O)ccc12 [ATKSKQH, Ala-Thr-Lys-Ser-Lys-Gln-His] ({Morpholide-CO}-ATKSKQH-{AMC})
Reply: 38.8 picomoles/minute/200 pmoles pr
